Reported inhibition by item:
- Target of assay: NAD-dependent protein deacetylase sirtuin-2 (Homo sapiens)
- Procedure text: Inhibition of N-terminal his6-tagged human SIRT2 (25 to 389 amino acids) using ZMAL as substrate at 50 uM after 4 hrs by fluorescence-based microplate reader method
Field: numeric (%). Do not append units.

>>> value_observed("CCCCCC(=O)Nc1ncc(Cc2cccc3ccccc23)s1")
48
>>> value_observed("Cc1cc(C)nc(SCC(=O)Nc2nnc(-c3ccccc3)s2)n1")
20
>>> value_observed("CCc1cc(CC)nc(SCC(=O)Nc2ncc(Cc3ccc(OC)cc3)s2)n1")
48

If you can, please state the reported inhibition value of Cc1cc(C)nc(SCC(=O)Nc2nnc(Cc3ccccc3)s2)n1 . 18

Query: inhibition; subject: COc1ccc(Cc2cnc(NC(=O)/C=C/c3ccco3)s2)cc1 18
